The reported numbers originate from patent US5990158A.

Recorded pIC50, one value per entry.
study_system: MMP-9 (gelatinase B) (Homo sapiens)
Sequence (P14780 94-707): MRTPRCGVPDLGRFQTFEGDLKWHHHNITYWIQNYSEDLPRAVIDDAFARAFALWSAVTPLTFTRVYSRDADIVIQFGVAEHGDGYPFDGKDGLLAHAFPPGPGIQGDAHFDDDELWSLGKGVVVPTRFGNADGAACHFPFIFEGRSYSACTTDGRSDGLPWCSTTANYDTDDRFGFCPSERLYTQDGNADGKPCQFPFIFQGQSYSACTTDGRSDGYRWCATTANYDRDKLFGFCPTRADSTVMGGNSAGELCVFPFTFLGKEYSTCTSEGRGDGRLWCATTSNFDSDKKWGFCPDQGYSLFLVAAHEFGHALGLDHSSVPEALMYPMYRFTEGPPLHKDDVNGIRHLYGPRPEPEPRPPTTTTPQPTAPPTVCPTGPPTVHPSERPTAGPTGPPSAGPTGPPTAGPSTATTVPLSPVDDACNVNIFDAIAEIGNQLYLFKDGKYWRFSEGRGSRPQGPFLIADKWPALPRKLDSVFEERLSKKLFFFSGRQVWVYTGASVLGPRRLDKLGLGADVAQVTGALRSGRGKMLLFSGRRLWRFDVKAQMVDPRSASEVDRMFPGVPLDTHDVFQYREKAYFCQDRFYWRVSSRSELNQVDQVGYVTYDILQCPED
test_name: MMP-9 (gelatinase B) inhibitory activity, FITC-labeled type IV collagen degradation
test_parameters: 50% inhibition of collagen type IV degradation; MMP-9 derived from human fibrosarcoma; 42° C., 4 h
pIC50: −log10 of the molar value.

- sample_smiles: "COc1ccc(OCCC[C@H](CC(=O)NO)C(=O)N[C@H](C(=O)NC(C)(C)C)C(C)(C)C)cc1"
  pIC50: 9.64
- sample_smiles: "CNC(=O)[C@H](Cc1ccccc1)NC(=O)[C@H](CCCOc1ccc(OC)cc1)CC(=O)NO"
  pIC50: 9.74
- sample_smiles: "CNC(=O)[C@H](Cc1ccc(OC)cc1)NC(=O)[C@@H](CC(=O)NO)CC(C)(C)COC"
  pIC50: 5.82
- sample_smiles: "CNC(=O)[C@H](Cc1ccc(OC)cc1)NC(=O)[C@H](CCOc1ccc(OC)cc1)CC(=O)NO"
  pIC50: 8.92
- sample_smiles: "CNC(=O)[C@@H](NC(=O)[C@@H](CC(=O)NO)CC(C)(C)COC)C(C)(C)C"
  pIC50: 5.17

----------
study_system: MMP-2 (gelatinase A) (Homo sapiens, UniProt P08253)
Sequence (P08253 110-660): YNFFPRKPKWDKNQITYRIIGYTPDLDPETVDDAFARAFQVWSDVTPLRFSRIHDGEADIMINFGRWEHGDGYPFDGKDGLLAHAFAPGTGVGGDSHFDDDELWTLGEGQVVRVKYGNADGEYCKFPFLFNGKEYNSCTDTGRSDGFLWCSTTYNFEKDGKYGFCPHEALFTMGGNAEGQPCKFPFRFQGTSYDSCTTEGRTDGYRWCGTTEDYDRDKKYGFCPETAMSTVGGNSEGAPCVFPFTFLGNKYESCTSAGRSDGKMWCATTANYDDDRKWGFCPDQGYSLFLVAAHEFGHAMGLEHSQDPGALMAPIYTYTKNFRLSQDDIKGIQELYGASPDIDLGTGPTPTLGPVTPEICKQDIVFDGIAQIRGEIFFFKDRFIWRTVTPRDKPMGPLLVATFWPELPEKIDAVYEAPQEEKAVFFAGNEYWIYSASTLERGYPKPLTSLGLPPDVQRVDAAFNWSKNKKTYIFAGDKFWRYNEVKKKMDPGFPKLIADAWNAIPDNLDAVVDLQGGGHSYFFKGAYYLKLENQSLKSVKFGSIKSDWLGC
test_name: MMP-2 (gelatinase A) inhibitory activity, FITC-labeled type IV collagen degradation
test_parameters: 50% inhibition of collagen type IV degradation; activated pro MMP-2 from transfected COS-1 cells; 42° C., 4 h
pIC50: −log10 of the molar value.
Recorded pIC50, one value per entry.
readout_type: pIC50

- sample_smiles: "CNC(=O)[C@H](Cc1ccccc1)NC(=O)[C@H](CCCOc1ccc(OC)cc1)CC(=O)OCc1oc(=O)oc1C"
  qualifier: "="
  observed_result: 6.00
- sample_smiles: "CNC(=O)[C@H](Cc1ccc(OC)cc1)NC(=O)[C@H](CCOc1ccc(OC)cc1)CC(=O)NO"
  qualifier: "="
  observed_result: 7.96
- sample_smiles: "CCOc1ccc(C[C@H](NC(=O)[C@H](CCc2ccc3cccccc2-3)CC(=O)NO)C(=O)NC)cc1"
  qualifier: "="
  observed_result: 6.74
- sample_smiles: "CNC(=O)[C@H](Cc1ccccc1)NC(=O)[C@H](CCCOc1ccc(OC)cc1)CC(=O)NO"
  qualifier: "="
  observed_result: 9.00
- sample_smiles: "COc1ccc(OCCC[C@H](CC(=O)NO)C(=O)N[C@H](C(=O)NC(C)(C)C)C(C)(C)C)cc1"
  qualifier: "="
  observed_result: 7.68
- sample_smiles: "COc1ccc(OCCC[C@H](CC(=O)NO)C(=O)N[C@@H](Cc2ccccc2)C(=O)NCCS(N)(=O)=O)cc1"
  qualifier: "="
  observed_result: 9.44
- sample_smiles: "CNC(=O)[C@H](Cc1ccccc1)NC(=O)[C@@H](CC(=O)NO)CC(C)(C)COC"
  qualifier: "<"
  observed_result: 5.00
- sample_smiles: "CNC(=O)[C@@H]1Cc2ccccc2CN1C(=O)[C@H](CCCOc1ccc(OC)cc1)CC(=O)O"
  qualifier: "<"
  observed_result: 5.00
